- TEST METHOD NOTES: pKa by potentiometric titration
- Assay type: physicochemical
- MEASUREMENT CONDITIONS: aqueous solution titrated with 0.051 M NaOH; 37 °C
PROPERTY LABEL: pKa

{"columns": ["COMPOUND", "RECORDED RESULT"],
 "data": [
  ["CCC(CO)NCCOc1c(C)cccc1Cl (stereo not shown) [KM-408]", 9.5]
]}

---

- ASSAY TARGET: hNav1.3 sodium channel (Homo sapiens)
- Construct: host or cells: CHO cells
- Sequence (Q9NY46 whole entry): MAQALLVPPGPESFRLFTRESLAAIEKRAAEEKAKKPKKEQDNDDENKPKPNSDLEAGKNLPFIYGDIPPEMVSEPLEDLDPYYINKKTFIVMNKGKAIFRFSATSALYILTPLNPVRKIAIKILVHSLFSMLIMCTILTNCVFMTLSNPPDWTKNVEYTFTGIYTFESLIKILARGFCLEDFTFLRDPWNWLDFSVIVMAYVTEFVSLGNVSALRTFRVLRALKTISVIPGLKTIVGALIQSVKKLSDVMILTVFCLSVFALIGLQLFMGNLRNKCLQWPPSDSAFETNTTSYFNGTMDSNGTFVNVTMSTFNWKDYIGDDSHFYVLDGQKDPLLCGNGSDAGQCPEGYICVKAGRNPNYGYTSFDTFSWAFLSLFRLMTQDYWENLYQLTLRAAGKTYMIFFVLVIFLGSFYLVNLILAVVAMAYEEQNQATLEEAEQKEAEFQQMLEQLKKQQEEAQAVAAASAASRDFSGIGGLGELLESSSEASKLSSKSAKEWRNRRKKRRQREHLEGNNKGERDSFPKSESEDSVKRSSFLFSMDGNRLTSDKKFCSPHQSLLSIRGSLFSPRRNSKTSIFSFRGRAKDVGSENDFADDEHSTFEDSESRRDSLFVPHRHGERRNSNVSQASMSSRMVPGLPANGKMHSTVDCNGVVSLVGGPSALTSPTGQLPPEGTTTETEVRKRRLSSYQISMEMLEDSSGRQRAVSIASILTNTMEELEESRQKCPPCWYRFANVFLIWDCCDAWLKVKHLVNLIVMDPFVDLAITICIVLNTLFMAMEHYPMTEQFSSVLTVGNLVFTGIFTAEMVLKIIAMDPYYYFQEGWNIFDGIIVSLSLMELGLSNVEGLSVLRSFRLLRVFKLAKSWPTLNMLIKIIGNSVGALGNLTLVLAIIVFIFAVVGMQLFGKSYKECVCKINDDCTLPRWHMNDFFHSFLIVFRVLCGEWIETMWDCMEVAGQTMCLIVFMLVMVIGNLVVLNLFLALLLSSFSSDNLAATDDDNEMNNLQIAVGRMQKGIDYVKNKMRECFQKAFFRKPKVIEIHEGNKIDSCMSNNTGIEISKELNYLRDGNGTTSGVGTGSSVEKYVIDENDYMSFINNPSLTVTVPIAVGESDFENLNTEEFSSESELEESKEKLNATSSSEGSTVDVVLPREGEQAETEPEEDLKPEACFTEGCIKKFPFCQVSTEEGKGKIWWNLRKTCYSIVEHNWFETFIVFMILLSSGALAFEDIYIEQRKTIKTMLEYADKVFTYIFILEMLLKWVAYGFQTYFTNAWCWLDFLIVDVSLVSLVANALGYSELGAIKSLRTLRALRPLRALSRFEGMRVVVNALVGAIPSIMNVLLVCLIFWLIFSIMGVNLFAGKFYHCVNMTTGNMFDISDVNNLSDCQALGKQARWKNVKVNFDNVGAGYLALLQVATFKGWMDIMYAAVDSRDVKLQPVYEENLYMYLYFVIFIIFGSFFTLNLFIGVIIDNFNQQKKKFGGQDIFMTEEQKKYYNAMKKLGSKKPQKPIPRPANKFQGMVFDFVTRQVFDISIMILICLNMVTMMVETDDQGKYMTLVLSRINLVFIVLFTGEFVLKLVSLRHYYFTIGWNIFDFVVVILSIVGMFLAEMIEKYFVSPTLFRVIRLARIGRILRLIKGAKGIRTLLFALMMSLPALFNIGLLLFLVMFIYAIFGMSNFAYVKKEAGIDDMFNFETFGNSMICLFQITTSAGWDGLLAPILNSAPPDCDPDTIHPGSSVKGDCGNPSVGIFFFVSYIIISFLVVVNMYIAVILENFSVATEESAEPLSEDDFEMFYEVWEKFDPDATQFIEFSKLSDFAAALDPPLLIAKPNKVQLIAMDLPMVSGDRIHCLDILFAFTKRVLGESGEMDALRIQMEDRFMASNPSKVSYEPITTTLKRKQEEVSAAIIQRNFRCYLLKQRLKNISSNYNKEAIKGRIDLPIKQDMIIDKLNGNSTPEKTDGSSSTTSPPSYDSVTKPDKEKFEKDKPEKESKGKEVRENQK
- TEST METHOD NOTES: Nav channel electrophysiology (IonWorks Quattro)
- Type: cell-based
- MEASUREMENT CONDITIONS: Tonic block
pIC50: −log10 of the molar value.
PROPERTY LABEL: pIC50

{"columns": ["COMPOUND", "RECORDED RESULT"],
 "data": [
  ["CCC(CO)NCCOc1c(C)cccc1Cl (stereo not shown)", 4.31]
]}
